Target: T1, cyno IL-33 N-His (cynomolgus monkey)
T1 chain: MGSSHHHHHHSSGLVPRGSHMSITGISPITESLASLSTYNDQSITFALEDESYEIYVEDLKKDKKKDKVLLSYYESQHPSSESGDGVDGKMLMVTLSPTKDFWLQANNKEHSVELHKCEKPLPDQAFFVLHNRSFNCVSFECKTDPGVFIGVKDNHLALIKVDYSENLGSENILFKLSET
Assay: SPR Biacore T200, 37 C
Reported Property: kon (M⁻¹ s⁻¹)
Answers are plain numbers, in M⁻¹ s⁻¹.

Example entries and their recorded answers appear below.
[
  {
    "Binder": "H4H9633P (antibody, IgG4, V domains shown, also called RG5) VH: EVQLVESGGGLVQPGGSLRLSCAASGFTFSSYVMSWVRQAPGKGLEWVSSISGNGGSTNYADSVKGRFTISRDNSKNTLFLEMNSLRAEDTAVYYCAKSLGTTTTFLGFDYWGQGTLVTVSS VL: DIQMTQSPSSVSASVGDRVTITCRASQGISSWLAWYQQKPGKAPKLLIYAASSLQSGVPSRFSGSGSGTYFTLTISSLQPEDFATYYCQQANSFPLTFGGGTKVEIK",
    "Observed": 265000
  },
  {
    "Binder": "H4H9663P (antibody, V domains shown) VH: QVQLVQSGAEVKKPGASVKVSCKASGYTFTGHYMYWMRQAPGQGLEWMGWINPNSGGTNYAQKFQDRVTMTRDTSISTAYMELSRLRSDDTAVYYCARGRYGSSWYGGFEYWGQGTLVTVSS VL: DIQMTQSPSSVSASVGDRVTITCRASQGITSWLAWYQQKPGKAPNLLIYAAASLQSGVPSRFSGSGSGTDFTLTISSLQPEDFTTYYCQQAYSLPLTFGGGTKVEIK",
    "Observed": "1.96e+06"
  },
  {
    "Binder": "H4H9676P (antibody, V domains shown) VH: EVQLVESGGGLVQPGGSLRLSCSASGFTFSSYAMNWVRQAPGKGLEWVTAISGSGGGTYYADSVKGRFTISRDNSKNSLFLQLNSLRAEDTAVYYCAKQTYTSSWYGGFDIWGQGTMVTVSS VL: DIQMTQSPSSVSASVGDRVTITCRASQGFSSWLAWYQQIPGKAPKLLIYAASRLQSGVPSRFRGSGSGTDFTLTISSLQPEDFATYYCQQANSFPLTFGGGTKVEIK",
    "Observed": "1.6e+06"
  },
  {
    "Binder": "H4H9672P (antibody, V domains shown) VH: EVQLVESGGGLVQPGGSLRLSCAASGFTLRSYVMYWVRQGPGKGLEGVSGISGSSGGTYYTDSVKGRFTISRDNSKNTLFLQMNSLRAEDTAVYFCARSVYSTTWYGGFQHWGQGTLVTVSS VL: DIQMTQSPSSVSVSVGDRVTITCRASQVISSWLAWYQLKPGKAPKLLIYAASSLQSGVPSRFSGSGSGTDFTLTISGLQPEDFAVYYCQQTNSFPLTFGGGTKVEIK",
    "Observed": 584000
  }
]

Okay, next one:
Recorded kon (binder H4H9629P (antibody, IgG4, V domains shown, also called RG4) VH: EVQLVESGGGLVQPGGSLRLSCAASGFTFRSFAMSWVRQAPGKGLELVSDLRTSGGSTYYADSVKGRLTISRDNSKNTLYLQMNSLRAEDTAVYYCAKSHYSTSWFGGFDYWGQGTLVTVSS VL: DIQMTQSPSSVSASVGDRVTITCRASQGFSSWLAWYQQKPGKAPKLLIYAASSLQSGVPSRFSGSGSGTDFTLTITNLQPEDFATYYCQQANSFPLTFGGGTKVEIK ): 916
